Numbers sourced from patent US20230416329A1.

molecular target: bovine trypsin (Bos taurus); assay: Trypsin inhibitory activity of peptides (BApNA hydrolysis, OD405; IC50, Ki, residual activity); format: biochemical; details: Ki=IC50/(1+S/Km), Km 0.33 mM; read-out: Ki
Sequence (P00760 24-246): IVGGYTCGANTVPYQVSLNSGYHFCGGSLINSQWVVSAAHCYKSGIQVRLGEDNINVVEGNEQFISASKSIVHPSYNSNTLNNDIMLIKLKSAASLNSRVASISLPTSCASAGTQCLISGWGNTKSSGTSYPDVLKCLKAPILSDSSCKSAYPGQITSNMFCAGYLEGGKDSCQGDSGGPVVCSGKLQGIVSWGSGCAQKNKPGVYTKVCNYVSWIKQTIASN
Bridge positions count the residues as written; N and C are the ends. Square brackets hold non-standard residues; d marks the D form. Peptide text beside a SMILES is read from it. Nle = CCCC[C@H](N)C(=O)O
Quick rule for you: Ki under 0.03 µM gets t, anything else gets f.

Answered examples (3):
{"MOLECULE": "CC[C@H](C)[C@@H]1NC(=O)[C@@H]2CCCN2C(=O)[C@@H]2CCCN2C(=O)[C@H]([C@@H](C)CC)NC(=O)[C@H](CO)NC(=O)[C@H](CCCCN)NC(=O)[C@H]([C@@H](C)O)NC(=O)[C@H](C)NC(=O)[C@H](CCCNC(=N)N)NC(=O)[C@H](CCC(N)=O)NC(=O)[C@@H](N)CSSC[C@@H](C(=O)N[C@@H](Cc2ccccc2)C(=O)O)NC1=O [BT79] (H-CQRATKSIPPICF-OH; disulfide 1-12; N-terminus and C-terminus assumed)", "TESTED_TARGET": "bovine trypsin (Bos taurus)", "QUALITATIVE_LABEL": "t"}
{"MOLECULE": "CC[C@H](C)[C@@H]1NC(=O)[C@@H]2CCCN2C(=O)[C@@H]2CCCN2C(=O)[C@H]([C@@H](C)CC)NC(=O)[C@H](CO)NC(=O)[C@H](CCCCN)NC(=O)[C@H]([C@@H](C)O)NC(=O)[C@H](C)NC(=O)[C@H](CCCNC(=N)N)NC(=O)[C@H](CCCCN)NC(=O)[C@@H](N)CSSC[C@@H](C(=O)N[C@@H](Cc2ccccc2)C(=O)O)NC1=O [BT77] (H-CKRATKSIPPICF-OH; disulfide 1-12; N-terminus and C-terminus assumed)", "TESTED_TARGET": "bovine trypsin (Bos taurus)", "QUALITATIVE_LABEL": "t"}
{"MOLECULE": "CC[C@H](C)[C@@H]1NC(=O)[C@@H]2CCCN2C(=O)[C@@H]2CCCN2C(=O)[C@H]([C@@H](C)CC)NC(=O)[C@H](CO)NC(=O)[C@H](CCCNC(=N)N)NC(=O)[C@H]([C@@H](C)O)NC(=O)[C@H](C)NC(=O)[C@H](CCCNC(=N)N)NC(=O)CNC(=O)[C@@H](N)CSSC[C@@H](C(=O)N[C@@H](Cc2ccccc2)C(=O)O)NC1=O [BT17] (H-CGRATRSIPPICF-OH; disulfide 1-12; C-terminus assumed)", "TESTED_TARGET": "bovine trypsin (Bos taurus)", "QUALITATIVE_LABEL": "f"}

Consider the additional molecule presented here.
Task: Lab note: confirm whether the reported Ki for this molecule is below 0.03 µM, equality not counting. molecule: CCCC[C@@H]1NC(=O)[C@@H](N)CSSC[C@@H](C(=O)N[C@@H](Cc2ccccc2)C(=O)O)NC(=O)[C@H]([C@@H](C)CC)NC(=O)[C@@H]2CCCN2C(=O)[C@@H]2CCCN2C(=O)[C@H]([C@@H](C)CC)NC(=O)[C@H](CO)NC(=O)[C@H](CCCCN)NC(=O)[C@H]([C@@H](C)O)NC(=O)[C@H](C)NC(=O)[C@H](CCCNC(=N)N)NC1=O [BT80] (H-C[Nle]RATKSIPPICF-OH; disulfide 1-12; N-terminus and C-terminus assumed)
Output: t
